Test system: U2OS
TEST_SUMMARY: Multiplex assay against U2OS
Assay type: toxicity, cell-based
STATED_CONDITIONS: human, 12 h, 1 µM, compound concentration 1 uM, replicate 2
MEASURED_QUANTITY: Population Membrane Permeable-Phenotype (%)
The reply should be a number in %, with the unit left off.

Would you please look over these solved cases?
# lookup: Population Membrane Permeable-Phenotype (%) of O=S(=O)(c1ccccc1)c1cnc2c(N3CCNCC3)cccc2c1 [INTEPIRDINE] 7

If you can, please state the reported Population Membrane Permeable-Phenotype (%) value of CCNC1(C(N)=O)CCN(c2ncnc3c2nc(-c2ccccc2Cl)n3-c2ccc(Cl)cc2)CC1 [OTENABANT] . 11

Could you tell me which Population Membrane Permeable-Phenotype (%) is on file for O=C(O)c1cc2ccccc2c(Cc2c(O)c(C(=O)O)cc3ccccc23)c1O [PAMOIC ACID] ? 12

---
Look up Population Membrane Permeable-Phenotype (%): `Oc1c(CN2CCN(c3ccccn3)CC2)cc(Cl)c2cccnc12` 13

What measured Population Membrane Permeable-Phenotype (%) goes with `CN1CCN(c2nc3cc(C(F)(F)F)ccc3n3cccc23)CC1.O=C(O)/C=C\C(=O)O.O=C(O)/C=C\C(=O)O` ? 8

Name the reported Population Membrane Permeable-Phenotype (%) value associated with the compound CN1CCN2c3ncccc3Cc3ccccc3C2C1 (centres undefined) [MIRTAZAPINE] 5

So what's the measured Population Membrane Permeable-Phenotype (%) for this one? CSc1ccccc1N1CCN(CCCCCC(=O)NC2CCCc3ccccc32)CC1.Cl (centres undefined) 51

Looking for the measured Population Membrane Permeable-Phenotype (%) of Cc1ccc(F)cc1C(=O)Nc1ccc(C(=O)N2Cc3cccn3Cc3ccccc32)c(Cl)c1 [LIXIVAPTAN] , can you help? 14

Reported Population Membrane Permeable-Phenotype (%), compound O=C(NCC(=O)N1CC[C@H](N[C@H]2CC[C@@](O)(c3ccc(-c4ncccn4)cn3)CC2)C1)c1cccc(C(F)(F)F)c1 [PF-4136309] : ____ 11

Any idea what Population Membrane Permeable-Phenotype (%) was measured for CNC[C@H](O)c1ccc(O)c(O)c1 [EPINEPHRINE] ? 7

Requested read-out: Population Membrane Permeable-Phenotype (%). Entry: CC(=O)NCCc1c(Cc2ccccc2)[nH]c2ccccc12 [LUZINDOLE] 6

Please report the recorded Population Membrane Permeable-Phenotype (%) for `COc1cc(C(=O)N(CCCc2ccccc2)Cc2ccc(CC(=O)O)cc2)cc(OC)c1C` . 8

Sample `CCOc1c2c(c(OCC)c3ncccc13)CN(c1ccc(CS(=O)(=O)NC(=O)Cc3ccccc3OC)cc1C)C2=O` — what was its Population Membrane Permeable-Phenotype (%)? 9

// returns reported Population Membrane Permeable-Phenotype (%) for input N#Cc1c(N)nc(SCc2csc(-c3ccc(Cl)cc3)n2)c(C#N)c1-c1ccc(OCCO)cc1 [CAPADENOSON] 5

Request the reported Population Membrane Permeable-Phenotype (%) associated with O=C(O)Cc1ccccc1Nc1c(Cl)cccc1Cl [DICLOFENAC] 5

Data request, read-out Population Membrane Permeable-Phenotype (%), for `O=C1COc2nccc(-c3ccccc3F)c2CN1Cc1cc(C(F)(F)F)cc(C(F)(F)F)c1` 15

So what does the record say about Population Membrane Permeable-Phenotype (%) for `CCCn1c(=O)c2[nH]c(C3CCCC3)nc2n(CCC)c1=O` ? 7

Dear colleague, I am looking for the recorded Population Membrane Permeable-Phenotype (%) of the following compound: Cc1ccc(C(C)(O)c2nc3ccccc3s2)c(C)c1 (centres undefined) 9

If you can, please state the reported Population Membrane Permeable-Phenotype (%) value of Cl.Clc1ccc2nsnc2c1NC1=NCCN1 [TIZANIDINE HYDROCHLORIDE] . 3

Endpoint output: Population Membrane Permeable-Phenotype (%) of `CC[C@H]1OC(=O)[C@H](C)[C@@H](O[C@H]2C[C@@](C)(OC)[C@@H](O)[C@H](C)O2)[C@H](C)[C@@H](O[C@@H]2O[C@H](C)C[C@H](N(C)C)[C@H]2O)[C@@]2(C)CC(C)=C(O2)[C@H](C)[C@@H](O)[C@]1(C)O` . Value? 21

Field request: Population Membrane Permeable-Phenotype (%) | item: Cc1ccccc1C(=O)Nc1ccc(C(=O)N2CCCC(N(C)C)c3ccccc32)cc1.Cl (centres undefined) 4

Which Population Membrane Permeable-Phenotype (%) is listed for `Cc1nc2ccc(Oc3ccc(F)cc3)cc2c(=O)n1C[C@H]1CCCN(C(C)C)C1.Cl` ? 17

Which Population Membrane Permeable-Phenotype (%) is reported for this compound? COc1ccc2c(c1)C(C(=O)N(Cc1ccc(N(C)C)cc1)c1ccc(C(C)C)cc1)CCC2.Cl (centres undefined) 9

// returns reported Population Membrane Permeable-Phenotype (%) for input COc1cc(NC(=O)CCN2CCC(OC(=O)Nc3ccccc3-c3ccccc3)CC2)c(Cl)cc1CNC[C@H](O)c1ccc(O)c2[nH]c(=O)ccc12 [BATEFENTEROL] 9
